# Organism: Rattus norvegicus
# assay_text: Compound was evaluated for its ability to displace [3H]APB from rat brain synaptic plasma membrane preparations
For each entry below, report its IC50 value.

Ask | Consider the molecule `N[C@@]1(C(=O)O)CCC[C@H](P(=O)(O)O)C1` and give its measured IC50.
Reply | 840 µM

Ask | For the molecule `N[C@@]1(C(=O)O)CC[C@@H](P(=O)(O)O)C1` , what IC50 is on record?
Reply | 80 µM

Ask | Look up IC50 for this molecule: `N[C@@H](CCP(=O)(O)O)C(=O)O`
Reply | 1.5 µM

Ask | Request the reported IC50 associated with `N[C@@]1(C(=O)O)CCC[C@@H](P(=O)(O)O)C1`
Reply | 750 µM

Ask | Can you look up the measured IC50 of `N[C@@]1(C(=O)O)CC[C@H](P(=O)(O)O)C1` for me?
Reply | 4.7 µM
